# study system: desmolase (Bos taurus, UniProt P00189)
# Construct: The mitochondrial fraction of bovine adrenal cortex provided the source of desmolase; from tissue; host or cells: bovine adrenal cortex, mitochondrial fraction
# Sequence (P00189 40-520): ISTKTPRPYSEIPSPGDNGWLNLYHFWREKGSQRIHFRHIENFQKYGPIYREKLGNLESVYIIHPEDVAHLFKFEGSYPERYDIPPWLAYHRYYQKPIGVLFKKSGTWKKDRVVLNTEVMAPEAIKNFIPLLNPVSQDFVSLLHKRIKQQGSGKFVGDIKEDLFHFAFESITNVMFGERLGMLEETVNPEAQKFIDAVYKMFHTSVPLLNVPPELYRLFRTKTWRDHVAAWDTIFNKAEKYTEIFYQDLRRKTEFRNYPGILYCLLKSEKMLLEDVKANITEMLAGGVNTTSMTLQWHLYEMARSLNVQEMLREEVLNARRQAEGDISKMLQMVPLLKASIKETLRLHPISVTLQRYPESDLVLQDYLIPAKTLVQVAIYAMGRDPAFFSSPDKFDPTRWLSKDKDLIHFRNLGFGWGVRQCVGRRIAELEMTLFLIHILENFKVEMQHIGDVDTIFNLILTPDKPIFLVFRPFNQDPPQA
# assay text: Desmolase inhibition, (26-^14C)-cholesterol as substrate (7 micromolar), mitochondrial fraction of bovine adrenal cortex
# Format: biochemical
# test settings: 7 micromolar (^14C) cholesterol; 30° C.; "None" = no inhibition; read-out: IC50 Desmolase
pIC50: −log10 of the molar value.
This listing pairs compounds with measured pIC50.
assay endpoint: pIC50

INSERT INTO measurements (compound, assay_endpoint, value_modifier, numeric_value) VALUES
  ('CCCCCCCCCN1C(=O)CCC(CC)(c2ccncc2)C1=O (stereo not shown) [R1=C2 H5, R2=n-C9 H19]', 'pIC50', '=', 3.76),
  ('CCCCCCCCN1C(=O)CCC(CCCCCCCC)(c2ccncc2)C1=O (stereo not shown) [R1=n-C8 H17, R2=n-C8 H17, reference compound]', 'pIC50', '=', 3.77),
  ('CCC1(c2ccncc2)CCC(=O)N(CC(F)(F)F)C1=O (stereo not shown) [R1=C2 H5, R2=CH2 CF3]', 'pIC50', '<', 3.46),
  ('CCCCCCCCC1(c2ccncc2)CCC(=O)N(CCCC)C1=O (stereo not shown) [R1=n-C8 H17, R2=n-C4 H9, reference compound]', 'pIC50', '=', 3.97),
  ('CCCCCCCCCCN1C(=O)CCC(CC)(c2ccncc2)C1=O (stereo not shown) [R1=C2 H5, R2=n-C10 H21]', 'pIC50', '=', 3.47),
  ('CCN1C(=O)CCC(CC)(c2ccncc2)C1=O (stereo not shown) [R1=C2 H5, R2=n-C2 H5, reference compound]', 'pIC50', '=', 4.04),
  ('CCCCCCCN1C(=O)CCC(CC)(c2ccncc2)C1=O (stereo not shown) [R1=C2 H5, R2=n-C7 H15]', 'pIC50', '=', 3.68),
  ('CCCCCN1C(=O)CCC(CC)(c2ccncc2)C1=O (stereo not shown) [R1=C2 H5, R2=n-C5 H11]', 'pIC50', '=', 3.68),
  ('CCCCCCCCN1C(=O)CCC(CC)(c2ccncc2)C1=O (stereo not shown) [R1=C2 H5, R2=n-C8 H17]', 'pIC50', '=', 3.96),
  ('CCCCCCCCC1(c2ccncc2)CCC(=O)N(CCCCCC)C1=O (stereo not shown) [R1=n-C8 H17, R2=n-C6 H13, reference compound]', 'pIC50', '=', 4.14);

----------
# study system: aromatase (Homo sapiens)
# Construct: Aromatase was obtained from the microsomal fraction of human placental tissue; from tissue; host or cells: human placenta, microsomal fraction
# Sequence (P11511 whole entry): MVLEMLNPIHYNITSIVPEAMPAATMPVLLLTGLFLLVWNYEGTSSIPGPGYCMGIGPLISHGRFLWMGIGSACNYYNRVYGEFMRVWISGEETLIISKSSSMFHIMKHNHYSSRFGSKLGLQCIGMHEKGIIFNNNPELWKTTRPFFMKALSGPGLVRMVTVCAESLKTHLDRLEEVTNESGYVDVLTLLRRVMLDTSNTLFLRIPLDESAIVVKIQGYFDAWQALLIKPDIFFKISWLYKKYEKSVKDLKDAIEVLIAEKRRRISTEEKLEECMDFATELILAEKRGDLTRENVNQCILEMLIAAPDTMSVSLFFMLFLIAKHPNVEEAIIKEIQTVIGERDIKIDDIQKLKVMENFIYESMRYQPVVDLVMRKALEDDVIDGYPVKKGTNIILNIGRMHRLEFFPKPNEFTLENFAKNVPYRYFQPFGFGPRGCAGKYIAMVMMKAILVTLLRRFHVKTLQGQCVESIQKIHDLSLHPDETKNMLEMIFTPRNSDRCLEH
# assay text: Aromatase inhibition, (1,2-^3H) testosterone as substrate (1.5 micromolar), microsomal fraction of human placental tissue
# Type: biochemical
# test settings: 1.5 micromolar (^3H) testosterone; 30° C.; "None" = no inhibition
So basically, if IC50 comes in under 20 µM it's True, and if it's 20 µM or more it's False.

INSERT INTO assay_data (molecule, study_system, group_label) VALUES
  ('O=C1CCC(CCC(F)(F)F)(c2ccncc2)C(=O)N1 (stereo not drawn)', 'aromatase (Homo sapiens)', 'True'),
  ('CCC1(c2ccncc2)CCC(=O)N(CC(F)(F)C(F)(F)C(F)(F)F)C1=O (stereo not drawn)', 'aromatase (Homo sapiens)', 'True'),
  ('CCC1(c2ccncc2)CCC(=O)N(CCC(F)(F)C(F)(F)C(F)(F)C(F)(F)C(F)(F)C(F)(F)F)C1=O (stereo not drawn)', 'aromatase (Homo sapiens)', 'False'),
  ('CCCCN1C(=O)CCC(CCCC)(c2ccncc2)C1=O (stereo not drawn)', 'aromatase (Homo sapiens)', 'True'),
  ('O=C1CCC(CCC(F)(F)C(F)(F)C(F)(F)C(F)(F)F)(c2ccncc2)C(=O)N1 (stereo not drawn) [R1=(CH2)2 (CF2)3 CF3, R2=H, reference compound]', 'aromatase (Homo sapiens)', 'True'),
  ('CCCCCCC1(c2ccncc2)CCC(=O)NC1=O (stereo not drawn)', 'aromatase (Homo sapiens)', 'True');
